Reference source: the supplement of paper PMC12494721

Tested on: Klebsiella aerogenes DSM 30053
runDescription: fold change of Histamine concentration vs plate DMSO controls (fold change (ratio)); higher = more amine produced, active = hit call of the paper (significant change in both replicates, either direction)
runConditions: incubation time: 27 h, anaerobic, 37 °C
Where a name gives a salt, the structure may show the parent alone.
Each record here notes measured fold change of Histamine concentration.
measuredProperty: fold change of Histamine concentration

- CC1CCc2c(N3CCC(O)CC3)c(F)cc3c(=O)c(C(=O)O)cn1c23 (stereo unspecified) [Nadifloxacin] (20 µM): 0.5
- COc1ccc(CCC(=O)c2c(O)cc(O[C@@H]3O[C@H](CO)[C@@H](O)[C@H](O)[C@H]3O[C@@H]3O[C@@H](C)[C@H](O)[C@@H](O)[C@H]3O)cc2O)cc1O [Neohesperidin Dihydrochalcone (Nhdc)] (50 µM): 1.02
- CS(=O)(=O)OCCCCOS(C)(=O)=O [Busulfan] (20 µM): 0.992
- C1CCC(C(CC2CCCCN2)C2CCCCC2)CC1 (stereo unspecified) [Perhexiline maleate] (20 µM): 0.983
- O=C(CCCN1CC=C(n2c(=O)[nH]c3ccccc32)CC1)c1ccc(F)cc1 [Droperidol] (20 µM): 0.994
- CN(C)CCN(Cc1cccs1)c1ccccn1 [Methapyrilene hydrochloride] (20 µM): 0.994
- CC(=O)Oc1ccccc1C(=O)Oc1ccccc1C(=O)O [Acetylsalicylsalicylic acid] (20 µM): 1.02
- CN(C)C(=O)COC(=O)Cc1ccc(OC(=O)c2ccc(NC(=N)N)cc2)cc1 [Camostat mesylate] (20 µM): 0.897
- CCCCOc1ccc(C(=O)CCN2CCCCC2)cc1 [Dyclonine hydrochloride] (20 µM): 1
- CCOC(=O)CC(=O)N1CCSC1COc1ccccc1OC (stereo unspecified) [Moguisteine] (20 µM): 1.02
- CCC(Cc1c(I)cc(I)c(N)c1I)C(=O)O (stereo unspecified) [Iopanoic acid] (20 µM): 0.999
- Cn1cc(C(=O)Nc2ccccc2-c2cc(F)c(F)c(F)c2)c(C(F)F)n1 (20 µM): 1.02
- Oc1ccccc1O [Catechol] (20 µM): 1
- CNCC[C@@H](Oc1cccc2ccccc12)c1cccs1 [(R)-Duloxetine hydrochloride] (20 µM): 1.01
- c1ccc2c(c1)ccc1ccccc12 [Phenanthrene] (20 µM): 1
- COc1ccc(C[C@@H]2c3cc(OC)c(OC)cc3CC[N@+]2(C)CCC(=O)OCCCCCOC(=O)CC[N@@+]2(C)CCc3cc(OC)c(OC)cc3[C@H]2Cc2ccc(OC)c(OC)c2)cc1OC [Cisatracurium besylate] (20 µM): 0.758
- CN(C)C(=O)Nc1ccc(Cl)c(Cl)c1 (20 µM): 1.01
- CCCc1nc(C)c2c(=O)nc(-c3cc(S(=O)(=O)N4CCN(CC)CC4)ccc3OCC)[nH]n12 [Vardenafil] (20 µM): 1.03
- CC(=O)O[C@H]1C(=O)[C@@]2(C)[C@H]([C@H](OC(=O)c3ccccc3)[C@]3(O)C[C@H](OC(=O)[C@H](O)[C@@H](NC(=O)c4ccccc4)c4ccccc4)C(C)=C1C3(C)C)[C@]1(OC(C)=O)CO[C@@H]1C[C@@H]2O [Paclitaxel] (20 µM): 0.885
- NCCc1ccc(O)c(O)c1 [Dopamine hydrochloride] (20 µM): 1.06
- CCc1cccc2c3c([nH]c12)C(CC)(CC(=O)O)OCC3 (stereo unspecified) [Etodolac] (20 µM): 1.06
- COc1ccc(-c2cc(=O)c3c(O)cc(O[C@@H]4O[C@H](CO[C@@H]5O[C@@H](C)[C@H](O)[C@@H](O)[C@H]5O)[C@@H](O)[C@H](O)[C@H]4O)cc3o2)cc1O [Diosmin] (20 µM): 0.924
- CCOC(=O)OC(C)OC1=C(C(=O)Nc2ccccn2)N(C)S(=O)(=O)c2ccccc21 (stereo unspecified) [Ampiroxicam] (20 µM): 0.908
- Nc1nc(=O)[nH]cc1F [Flucytosine] (20 µM): 1.07
- CSc1ccc2c(c1)N(CCC1CCCCN1C)c1ccccc1S2 (stereo unspecified) [Thioridazine hydrochloride] (20 µM): 0.936
- Cc1onc(-c2ccccc2)c1C(=O)N[C@@H]1C(=O)N2[C@@H]1SC(C)(C)[C@@H]2C(=O)O [Oxacillin sodium] (20 µM): 0.996
- O=C(CCNNC(=O)c1ccncc1)NCc1ccccc1 [Nialamide] (20 µM): 1.03
- O=C(CCCCC(=O)Nc1c(I)cc(I)c(C(=O)O)c1I)Nc1c(I)cc(I)c(C(=O)O)c1I [Iodipamide] (20 µM): 1.04
- N=C(N)NS(=O)(=O)c1ccc(N)cc1 [Sulfaguanidine] (20 µM): 1.04
- Cc1ccc(Nc2c(F)cccc2Cl)c(CC(=O)O)c1 [Lumiracoxib] (20 µM): 0.88
- CN1CCN2c3ncccc3Cc3ccccc3C2C1 (stereo unspecified) [Mirtazapine] (20 µM): 0.963

====

Quick reference for fold change of Cadaverine concentration among some compounds
System: Klebsiella aerogenes DSM 30053
runDescription: fold change of Cadaverine concentration vs plate DMSO controls (fold change (ratio)); higher = more amine produced, active = hit call of the paper (significant change in both replicates, either direction)
runConditions: incubation time: 27 h, anaerobic, 37 °C
measuredProperty: fold change of Cadaverine concentration

- CCCCN(CCCC)CCCOC(=O)c1ccc(N)cc1 [Butacaine] (20 µM): 1
- Cc1ccc(Nc2c(F)cccc2Cl)c(CC(=O)O)c1 [Lumiracoxib] (20 µM): 1.03
- Clc1ccc(CSC(Cn2ccnc2)c2ccc(Cl)cc2Cl)cc1 (stereo not given) [Sulconazole nitrate] (20 µM): 1.01
- N[C@@H](CSCCCO)C(=O)O [Fudosteine] (20 µM): 1.01
- CC(=O)Nc1ccc(OCC(O)CNC(C)C)cc1 (stereo not given) [Practolol] (20 µM): 1.01

====

growth reference
Tested on: Ruminococcus gnavus DSM 108212
runDescription: growth (OD595) fold change vs plate DMSO controls (fold change (ratio)); higher = more growth
runConditions: incubation time: 27 h, anaerobic, 37 °C
Where a name gives a salt, the structure may show the parent alone.
measuredProperty: growth

* CCn1cc(C(=O)O)c(=O)c2cc(F)c(N3CCNCC3)cc21 [Norfloxacin] (20 µM) | 0.814
* CCCC(CCC)C(=O)O[C@H]1C[C@H]2CC[C@@H](C1)[N+]2(C)C [Anisotropine Methylbromide] (20 µM) | 1.01
* C[C@]12C[C@H](O)[C@H]3[C@@H](CCC4=CC(=O)CC[C@@]43C)[C@@H]1CC[C@@H]2C(=O)CO [Corticosterone] (20 µM) | 1.11
* CC1(C)O[C@@H]2C[C@H]3[C@@H]4CCC5=CC(=O)CC[C@]5(C)[C@@]4(F)[C@@H](O)C[C@]3(C)[C@]2(C(=O)CCl)O1 [Halcinonide] (20 µM) | 1.07
* CC(CN(C)C)CN1c2ccccc2Sc2ccccc21 (stereo not drawn) [Trimeprazine tartrate] (20 µM) | 0.937
* CCn1cc(C(=O)O)c(=O)c2cnc(N3CCCC3)nc21 [Piromidic acid] (20 µM) | 0.973
* O=C(O)CNC(=O)c1ccccc1 [Hippuric acid] (20 µM) | 1.05
* CCOC(N)=O [Urethane] (20 µM) | 1.08

====

This section presents compounds with their documented fold change of Tryptamine concentration values.
Test system: Clostridium sporogenes DSM 1664
runDescription: fold change of Tryptamine concentration vs plate DMSO controls (fold change (ratio)); higher = more amine produced, active = hit call of the paper (significant change in both replicates, either direction)
runConditions: incubation time: 27 h, anaerobic, 37 °C
Counter-ions that a name gives are not always drawn.
measuredProperty: fold change of Tryptamine concentration

• NCCc1cc[nH]n1 [Betazole hydrochloride] (20 µM) = 1
• O=C1[C@H](CC[C@H](O)c2ccc(F)cc2)[C@@H](c2ccc(O)cc2)N1c1ccc(F)cc1 [Ezetimibe] (20 µM) = 0.796
• Cc1[nH]c(=O)c(C#N)cc1-c1ccncc1 [Milrinone] (20 µM) = 0.997
• CNC(=O)c1c(I)c(C(=O)NCC(=O)Nc2c(I)c(C(=O)O)c(I)c(C(=O)NCCO)c2I)c(I)c(N(C)C(C)=O)c1I [Ioxaglic acid] (20 µM) = 0.978
• CC12CC3CC(C)(C1)CC(N)(C3)C2 [Memantine hydrochloride] (20 µM) = 1.03
• Cc1c(Cl)cccc1Nc1ncccc1C(=O)O [Clonixin lysinate] (20 µM) = 0.959
• COC(=O)C1=C(C)NC(C)=C(C(=O)O[C@H]2CCN(Cc3ccccc3)C2)[C@H]1c1cccc([N+](=O)[O-])c1 [Barnidipine Hydrochloride] (20 µM) = 0.969
• CC(CN(C)C)CN1c2ccccc2CCc2ccccc21 (configuration not stated) [Trimipramine maleate salt] (20 µM) = 0.985
• CCC1NC(=O)c2cc(S(N)(=O)=O)c(Cl)cc2N1 (configuration not stated) [Quinethazone] (20 µM) = 1.27
• CNC(=C[N+](=O)[O-])NCCSCc1csc(CN(C)C)n1 [Nizatidine] (20 µM) = 0.99
• Cc1ccccc1OCC(O)CO (configuration not stated) [Mephenesin] (20 µM) = 1.02
• N=C(N=C(N)N)N1CCOCC1 [Moroxidine hydrochloride] (20 µM) = 0.987
• CN/C(=N\CCSCc1nc[nH]c1C)NC#N [Cimetidine] (20 µM) = 0.981
• COc1ccc2cc(CCC(C)=O)ccc2c1 [Nabumetone] (20 µM) = 0.926
• CN1C(=O)OC(C)(C)C1=O [Trimethadione] (20 µM) = 0.924
• CCN(CC)C(=O)Nc1ccc(OCC(O)CNC(C)(C)C)c(C(C)=O)c1 (configuration not stated) [Celiprolol hydrochloride] (20 µM) = 0.988
• CN(C)c1cc(NC(=O)CNC(C)(C)C)c(O)c2c1C[C@H]1C[C@H]3[C@H](N(C)C)C(=O)C(C(N)=O)=C(O)[C@@]3(O)C(=O)C1=C2O [Tigecycline] (20 µM) = 0.964
